We begin with a simple list: items and their reported Dead.
# Test system: ARDS patients
# Experiment: eICU (v1) dataset, statin intervention by Model C.4 subphenotype
# Assay type: in vivo, human
# Assay Context: no consideration to number doses and minimum dose size; Subphenotype A
# Text: The dataset from the eICU (v1) dataset was used for analysis. The intervention of interest was statins. The individual statins were then examined with no consideration to number of doses and minimum dose size. Using this methodology, there were several differential responses identified (bolded and underlined cells as shown below in Table 81).
Result Type: Dead

1) CC[C@H](C)C(=O)O[C@H]1C[C@@H](C)C=C2C=C[C@H](C)[C@H](CC[C@@H]3C[C@@H](O)CC(=O)O3)[C@H]21: 0
2) CC(C)c1c(C(=O)Nc2ccccc2)c(-c2ccccc2)c(-c2ccc(F)cc2)n1CC[C@@H](O)C[C@@H](O)CC(=O)O: 26
3) CC(C)c1nc(N(C)S(C)(=O)=O)nc(-c2ccc(F)cc2)c1/C=C/[C@@H](O)C[C@@H](O)CC(=O)O: 2
4) CC[C@H](C)C(=O)O[C@H]1C[C@H](O)C=C2C=C[C@H](C)[C@H](CC[C@@H](O)C[C@@H](O)CC(=O)O)[C@H]21: 4
5) CCC(C)(C)C(=O)O[C@H]1C[C@@H](C)C=C2C=C[C@H](C)[C@H](CC[C@@H]3C[C@@H](O)CC(=O)O3)[C@H]21: 10

---

# Tested on: ARDS patients
# Experiment: eICU (v1) dataset, statin intervention by Model C.4 subphenotype
# Type: in vivo, human
# Assay Context: no consideration to number doses and minimum dose size; Subphenotype A
Listing of entries alongside the reported Mortality.
Result Type: Mortality

1) CC(C)c1c(C(=O)Nc2ccccc2)c(-c2ccccc2)c(-c2ccc(F)cc2)n1CC[C@@H](O)C[C@@H](O)CC(=O)O: 11%
2) CCC(C)(C)C(=O)O[C@H]1C[C@@H](C)C=C2C=C[C@H](C)[C@H](CC[C@@H]3C[C@@H](O)CC(=O)O3)[C@H]21: 8%
3) CC(C)c1nc(N(C)S(C)(=O)=O)nc(-c2ccc(F)cc2)c1/C=C/[C@@H](O)C[C@@H](O)CC(=O)O: 8%
4) CC[C@H](C)C(=O)O[C@H]1C[C@@H](C)C=C2C=C[C@H](C)[C@H](CC[C@@H]3C[C@@H](O)CC(=O)O3)[C@H]21: 0%
